Labelling field: enter rule met if recorded logP is less than 1. Enter rule not met if it equals or exceeds that cut-off.

Smiles Representation: Nc1ccc2[nH]ccc2c1
Label Class: rule not met

Smiles Representation: Cc1cc(N)c([N+](=O)[O-])cc1C
Label Class: rule not met

Smiles Representation: Cc1ccc(N)c([N+](=O)[O-])c1
Label Class: rule not met

Smiles Representation: Nc1cccc2c(N)cccc12
Label Class: rule met

Smiles Representation: O=[N+]([O-])c1ccc2nn[nH]c2c1
Label Class: rule not met

Smiles Representation: Nc1nc2ccccc2[nH]1
Label Class: rule not met

Smiles Representation: O=[N+]([O-])c1ccc2nc[nH]c2c1
Label Class: rule not met

Smiles Representation: Nc1cc2ccccc2cc1N
Label Class: rule not met

Smiles Representation: Nc1cccc2cccc(N)c12
Label Class: rule not met

Smiles Representation: Nc1cccc2ncccc12
Label Class: rule not met

Smiles Representation: Nc1ccc2[nH]ncc2c1
Label Class: rule met

Smiles Representation: O=[N+]([O-])c1ccncc1
Label Class: rule met
